# System: T-47D breast
# assayDetails: NCI tumour cell line growth inhibition, 48 h; in the data active means GI50 below about 0.43 µM; inactive means the rest
Assign a class; possible classes are active, inactive

Q: What did this assay record as the result for COC(=O)c1cc2c([nH]c3ccccc32)c(-c2nc3ccccc3cc2CO)n1 ?
Ans: inactive

Q: What did this assay record as the result for C=C1C(=O)O[C@H]2[C@H]1CC/C(CNC(=O)C(C)c1ccc(CC(C)C)cc1)=C\CC[C@@]1(C)O[C@@H]21 (some centres undefined) ?
Ans: inactive

Q: What did this assay record as the result for CCCn1cc(/C=N\N=C2\C(=O)Nc3ccc(C)cc32)c2ccccc21 ?
Ans: active

Q: What did this assay record as the result for Cc1cc(C(=O)CC(Cl)=C(Cl)Cl)c(Cl)cc1Cl ?
Ans: inactive
